tested on: Cavia porcellus; test: Bronchoprotection in male Duncan Hartley guinea pig bronchoconstriction einthoven model assessed as inhibition of methacholine-induced bronchoconstriction at 100 microg/ml, inhalation after 24 hrs by in vivo beta2 adrenergic receptor agonist activity assay; assay type: functional; design: scale not given: the % may be the effect or the level left
reported.property: Activity (%)
Response body: numeric value in %, unit text excluded.

Completed entries (count: 2):
Notebook: O=C(Nc1ccccc1-c1ccccc1)OC1CCN(CCCCCCCCCNC[C@H](O)c2ccc(O)c3[nH]c(=O)ccc23)CC1 , Activity read as 10

Notebook: COc1cc(NC(=O)CCN2CCC(OC(=O)Nc3ccccc3-c3ccccc3)CC2)ccc1CNC[C@H](O)c1ccc(O)c2[nH]c(=O)ccc12 , Activity read as 72

Note: attention shifts to another entry.
Notebook: O=C(Nc1ccccc1-c1ccccc1)OC1CCN(CCNC(=O)c2ccc(CNC[C@H](O)c3ccc(O)c4[nH]c(=O)ccc34)cc2)CC1 , Activity read as 20

###

test system: Cavia porcellus; experiment: Bronchoprotection in male Duncan Hartley guinea pig bronchoconstriction einthoven model assessed as inhibition of methacholine-induced bronchoconstriction at 100 microg/ml, inhalation after 24 hrs by in vivo beta2 adrenergic receptor agonist activity assay; assay type: functional; parameters: scale not given: the % may be the effect or the level left
reported.property: Activity (%)
Response body: numeric value in %, unit text excluded.

Notebook: O=C(CCN1CCC(OC(=O)Nc2ccccc2-c2ccccc2)CC1)Nc1ccc(CNC[C@H](O)c2ccc(O)c3[nH]c(=O)ccc23)cc1 , Activity read as -2

Notebook: COc1cc(CNC[C@H](O)c2ccc(O)c3[nH]c(=O)ccc23)ccc1NC(=O)CCN1CCC(OC(=O)Nc2ccccc2-c2ccccc2)CC1 , Activity read as 33

Notebook: Cc1cc(CNC[C@H](O)c2ccc(O)c3[nH]c(=O)ccc23)ccc1NC(=O)CCN1CCC(OC(=O)Nc2ccccc2-c2ccccc2)CC1 , Activity read as 20

***
Notebook: O=C(CCN1CCC(OC(=O)Nc2ccccc2-c2ccccc2)CC1)Nc1cccc(CCNC[C@H](O)c2ccc(O)c3[nH]c(=O)ccc23)c1 , Activity read as 46

Notebook: O=C(CCN1CCC(OC(=O)Nc2ccccc2-c2ccccc2)CC1)Nc1ccc(CNC[C@H](O)c2ccc(O)c3[nH]c(=O)ccc23)cc1Cl , Activity read as 25

Notebook: COc1cc(NC(=O)CCN2CCC(OC(=O)Nc3ccccc3-c3ccccc3)CC2)c(Cl)cc1CNC[C@H](O)c1ccc(O)c2[nH]c(=O)ccc12 , Activity read as 47

Notebook: NC(=O)C(c1ccccc1)(c1ccccc1)[C@@H]1CCN(CCc2ccc3c(c2)CCO3)C1 , Activity read as 43

###

target: Beta-2 adrenergic receptor (Homo sapiens); experiment: Agonist activity at human beta2 adrenergic receptor expressed in HEK293 cells assessed as cAMP accumulation using [125I]cAMP by scintillation counting; assay type: functional, cell-based
Sequence (P07550 whole entry): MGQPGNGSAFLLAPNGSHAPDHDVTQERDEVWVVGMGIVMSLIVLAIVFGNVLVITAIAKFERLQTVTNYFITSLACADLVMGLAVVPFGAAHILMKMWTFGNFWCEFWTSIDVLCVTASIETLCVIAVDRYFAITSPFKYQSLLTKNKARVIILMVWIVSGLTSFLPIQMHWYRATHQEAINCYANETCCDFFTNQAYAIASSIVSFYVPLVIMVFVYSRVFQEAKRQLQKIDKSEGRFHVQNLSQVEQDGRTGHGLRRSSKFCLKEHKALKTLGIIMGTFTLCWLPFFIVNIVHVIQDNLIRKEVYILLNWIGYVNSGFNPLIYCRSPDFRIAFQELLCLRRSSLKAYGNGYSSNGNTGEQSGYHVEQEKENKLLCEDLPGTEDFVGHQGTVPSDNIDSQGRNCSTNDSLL
reported.property: pEC50
Give only the number. pEC50 is defined as minus log10 of concentration in molar units.

Completed entries (count: 3):
Notebook: COc1cc(N(C)C(=O)CCN2CCC(OC(=O)Nc3ccccc3-c3ccccc3)CC2)ccc1CNC[C@H](O)c1ccc(O)c2[nH]c(=O)ccc12 , pEC50 read as 7.30

Notebook: COc1cc(NC(=O)CCN2CCC(OC(=O)Nc3ccccc3-c3ccccc3)CC2)ccc1CNC[C@H](O)c1ccc(O)c2[nH]c(=O)ccc12 , pEC50 read as 9.60

Notebook: COc1cc(N(C)C(=O)CCN2CCC(OC(=O)Nc3ccccc3-c3ccccc3)CC2)c(Cl)cc1CNC[C@H](O)c1ccc(O)c2[nH]c(=O)ccc12 , pEC50 read as 9.10

***
Notebook: O=C(CCN1CCC(OC(=O)Nc2ccccc2-c2ccccc2)CC1)Nc1cccc(CCNC[C@H](O)c2ccc(O)c3[nH]c(=O)ccc23)c1 , pEC50 read as 10.00

Notebook: Cc1cc(C(=O)NCCN2CCC(OC(=O)Nc3ccccc3-c3ccccc3)CC2)c(C)cc1CNC[C@H](O)c1ccc(O)c2[nH]c(=O)ccc12 , pEC50 read as 9.80

Notebook: COc1ccc(NC(=O)CCN2CCC(OC(=O)Nc3ccccc3-c3ccccc3)CC2)cc1CCNC[C@H](O)c1ccc(O)c2[nH]c(=O)ccc12 , pEC50 read as 9.10

Notebook: O=C(CCN1CCC(OC(=O)Nc2ccccc2-c2ccccc2)CC1)Nc1ccc(CNC[C@H](O)c2ccc(O)c3[nH]c(=O)ccc23)c(Cl)c1 , pEC50 read as 9.30

Notebook: COc1c(CNC[C@H](O)c2ccc(O)c3[nH]c(=O)ccc23)ccc(NC(=O)CCN2CCC(OC(=O)Nc3ccccc3-c3ccccc3)CC2)c1C , pEC50 read as 9.60

Notebook: COc1c(CNC[C@H](O)c2ccc(O)c3[nH]c(=O)ccc23)ccc(NC(=O)CCN2CCC(OC(=O)Nc3ccccc3-c3ccccc3)CC2)c1Cl , pEC50 read as 9.40

Notebook: COc1cc(C(=O)NCCN2CCC(OC(=O)Nc3ccccc3-c3ccccc3)CC2)ccc1CNC[C@H](O)c1ccc(O)c2[nH]c(=O)ccc12 , pEC50 read as 8.80

Notebook: COc1cc(CNC[C@H](O)c2ccc(O)c3[nH]c(=O)ccc23)ccc1NC(=O)CCN1CCC(OC(=O)Nc2ccccc2-c2ccccc2)CC1 , pEC50 read as 9.30

Notebook: COc1cc(NC(=O)CCN2CCC(OC(=O)Nc3ccccc3-c3ccccc3)CC2)c(C)cc1CNC[C@H](O)c1ccc(O)c2[nH]c(=O)ccc12 , pEC50 read as 9.50

Notebook: O=C(CCN1CCC(OC(=O)Nc2ccccc2-c2ccccc2)CC1)NCCCCCNC[C@H](O)c1ccc(O)c2[nH]c(=O)ccc12 , pEC50 read as 9.90
